Taken from patent US6916812B2.

Below, each of the compounds is paired with its reported inhibition at 10 µM value.
# testSystem: cloned human MC4R (Homo sapiens)
# Construct: made in house; host or cells: Hi5 insect cells (baculovirus infection); membrane preparation
# Sequence (P32245 whole entry): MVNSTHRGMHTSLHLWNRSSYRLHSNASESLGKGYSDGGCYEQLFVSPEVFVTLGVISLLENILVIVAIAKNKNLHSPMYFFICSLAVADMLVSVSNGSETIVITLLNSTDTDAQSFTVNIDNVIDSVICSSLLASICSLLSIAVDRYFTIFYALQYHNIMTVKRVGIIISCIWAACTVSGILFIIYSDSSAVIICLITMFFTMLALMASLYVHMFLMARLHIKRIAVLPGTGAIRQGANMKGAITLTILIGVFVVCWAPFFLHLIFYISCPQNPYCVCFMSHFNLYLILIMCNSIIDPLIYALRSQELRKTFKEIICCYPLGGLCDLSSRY
# experimentalProtocol: Membrane binding assay: competitive inhibition of [125I]NDP-α-MSH binding
# measurementParameters: at 10 μM; [125I]NDP-α-MSH displacement; read-out: Displacement Rate (%) (at 10 μM)

structureSmiles: CCOc1cccc(CN2CCN(C(=O)[C@@H](N)Cc3ccc(OCc4ccccc4)cc3)CC2)c1O
testSystem: cloned human MC4R (Homo sapiens)
inhibition at 10 µM: 71 to 90%

structureSmiles: N[C@@H](Cc1ccc(-c2ccc(C(=O)O)cc2)cc1)C(=O)N1CCN(Cc2cccc(Cl)c2Cl)CC1
testSystem: cloned human MC4R (Homo sapiens)
inhibition at 10 µM: 71 to 90%

structureSmiles: COc1cccc(-c2ccc(C[C@H](N)C(=O)N3CCN(Cc4cccc(Cl)c4Cl)CC3)cc2)c1
testSystem: cloned human MC4R (Homo sapiens)
inhibition at 10 µM: 71 to 90%

structureSmiles: Cc1ccc(C)c(CN2CCN(C(=O)[C@@H](N)Cc3ccc(OCc4ccccc4)cc3)CC2)c1
testSystem: cloned human MC4R (Homo sapiens)
inhibition at 10 µM: 71 to 90%

structureSmiles: N[C@@H](Cc1ccc(OCc2ccccc2)cc1)C(=O)N1CCCN(Cc2ccc(-c3cccc([N+](=O)[O-])c3)o2)CC1
testSystem: cloned human MC4R (Homo sapiens)
inhibition at 10 µM: 91 to 100%

structureSmiles: N[C@@H](Cc1ccc(OCc2ccccc2)cc1)C(=O)N1CCCN(Cc2cn(Cc3ccccc3)c3ccccc23)CC1
testSystem: cloned human MC4R (Homo sapiens)
inhibition at 10 µM: 91 to 100%

structureSmiles: CCCCc1ccc(CN2CCN(C(=O)[C@@H](N)Cc3ccc(OCc4ccccc4)cc3)CC2)cc1
testSystem: cloned human MC4R (Homo sapiens)
inhibition at 10 µM: 91 to 100%

====

# testSystem: cloned human MC4R (Homo sapiens)
# Construct: made in house; host or cells: Hi5 insect cells (baculovirus infection); membrane preparation
# experimentalProtocol: Membrane binding assay: competitive inhibition of [125I]NDP-α-MSH binding
# measurementParameters: read-out: MC4R IC50
pIC50: −log10 of the molar value.
Below, each of the compounds is paired with its reported pIC50 value.

structureSmiles: N[C@@H](Cc1ccc(OCc2ccc(F)cc2)cc1)C(=O)N1CCN(Cc2cccc(Cl)c2Cl)CC1
pIC50: > 5.82
//
structureSmiles: N[C@@H](Cc1ccc(OCCCCc2ccccc2)cc1)C(=O)N1CCN(Cc2cccc(Cl)c2Cl)CC1
pIC50: > 5.82
//
structureSmiles: N[C@@H](Cc1ccc(OCc2ccc(-c3ccccc3)cc2)cc1)C(=O)N1CCN(Cc2cccc(Cl)c2Cl)CC1
pIC50: > 5.82
//
structureSmiles: N[C@@H](Cc1ccc(OCc2cccc(C(F)(F)F)c2)cc1)C(=O)N1CCN(Cc2cccc(Cl)c2Cl)CC1
pIC50: 5.52 to 5.82
//
structureSmiles: N[C@@H](Cc1ccc(OCc2cccc(OCc3ccccc3)c2)cc1)C(=O)N1CCN(Cc2cccc(Cl)c2Cl)CC1
pIC50: > 5.82
//
structureSmiles: N[C@@H](Cc1ccc(OCc2ccccc2)cc1)C(=O)N1CCCN(Cc2ccnc3ccccc23)CC1
pIC50: < 5.52
//
structureSmiles: N[C@@H](Cc1ccc(OCc2ccccc2)cc1)C(=O)N1CCCN(C2CCN(Cc3ccccc3)CC2)CC1
pIC50: < 5.52
